Data provenance is patent US11566007B2.

target: KRAS G12S (Homo sapiens (Human), UniProt P01116+P62937, G12S); assay: Ras-Raf (BRAF RBD) disruption / FRET / MOA assay, KRAS G12S; format: biochemical; conditions: Ras-Raf disruption/FRET/MOA assay; class symbols; read-out: KRAS G12S FRET data IC50
Sequence (P01116-2 other isoform, or with tags, fused parts or gaps G12S): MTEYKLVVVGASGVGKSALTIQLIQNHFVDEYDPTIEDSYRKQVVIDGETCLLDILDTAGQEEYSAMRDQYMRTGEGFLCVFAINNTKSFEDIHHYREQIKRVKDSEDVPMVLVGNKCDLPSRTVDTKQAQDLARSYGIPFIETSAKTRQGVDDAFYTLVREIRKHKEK
Sequence (P62937 whole entry): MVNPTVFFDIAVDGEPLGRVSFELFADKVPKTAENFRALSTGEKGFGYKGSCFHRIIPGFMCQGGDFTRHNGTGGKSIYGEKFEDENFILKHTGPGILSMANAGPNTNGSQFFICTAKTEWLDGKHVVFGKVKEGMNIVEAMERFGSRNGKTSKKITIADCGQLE
pIC50: −log10 of the molar value.
measurement_name: pIC50

compound	tested_system	pIC50
CCn1c(-c2cccnc2[C@H](C)OC)c2c3cc(ccc31)-c1csc(n1)C[C@H](NC(=O)[C@H](C(C)C)N(C)C(=O)[C@H]1CCC(C(=O)/C=C/CN(C)C)C1)C(=O)N1CCC[C@H](N1)C(=O)OCC(C)(C)C2 (some centres unmarked) [Example A282]	KRAS G12S (Homo sapiens (Human), UniProt P01116+P62937, G12S)	5.00 to 6.00

Exam item: Return pIC50 measured with KRAS G12S (Homo sapiens (Human), UniProt P01116+P62937, G12S) given this compound: C=CC(=O)N(C)[C@H]1CC1N(C)C(=O)N(C)[C@H](C(=O)N[C@H]1Cc2nc(cs2)-c2ccc3c(c2)c(c(-c2cccnc2[C@H](C)OC)n3CC)CC(C)(C)COC(=O)[C@@H]2CCCN(N2)C1=O)C(C)C (some centres unmarked) [Example A738]
Marked response: 5.00 to 6.00

* * *

biological target: K-Ras G13C (Homo sapiens (Human), UniProt P01116+P62937, G13C); experiment: Ras-Raf (BRAF RBD) disruption / FRET / MOA assay, KRAS G13C; type: biochemical; conditions: KRAS G13C; Ras-Raf disruption/FRET/MOA assay; read-out: IC50* KRAS G13C FRET data
Sequence (P01116-2 other isoform, or with tags, fused parts or gaps G13C, one chain of several): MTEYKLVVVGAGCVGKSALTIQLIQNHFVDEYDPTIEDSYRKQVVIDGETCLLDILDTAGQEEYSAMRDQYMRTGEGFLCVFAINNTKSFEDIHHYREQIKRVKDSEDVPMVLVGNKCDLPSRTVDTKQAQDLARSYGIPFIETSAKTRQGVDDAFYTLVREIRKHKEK
measurement_name: IC50

molecule	tested_system	value_measured
C=CC(=O)N1CC[C@H](C(=O)N(C)[C@H](C(=O)N[C@H]2Cc3cccc(c3)-c3ccc4c(c3)c(c(-c3cccnc3[C@H](C)OC)n4CC(F)F)CC(C)(C)COC(=O)[C@@H]3CCCN(N3)C2=O)C(C)C)C1 (atropisomer, axis not shown)	K-Ras G13C (Homo sapiens (Human), UniProt P01116+P62937, G13C)	1 to 10 µM
CCn1c(-c2cccnc2[C@H](C)OC)c2c3cc(ccc31)-c1cccc(c1)C[C@H](NC(=O)[C@H](C(C)C)N1CO[C@@]3(CCN(C(=O)/C=C/CN(C)C)C3)C1=O)C(=O)N1CCC[C@H](N1)C(=O)OCC(C)(C)C2 (atropisomer, axis not shown)	K-Ras G13C (Homo sapiens (Human), UniProt P01116+P62937, G13C)	0.1 to 1 µM
C=CC(=O)N1CC[C@H](C(=O)N(C)[C@H](C(=O)N[C@H]2Cc3cc(ccn3)-c3ccc4c(c3)c(c(-c3cccnc3COC)n4CC)CC(C)(C)COC(=O)[C@@H]3CCCN(N3)C2=O)C(C)C)C1	K-Ras G13C (Homo sapiens (Human), UniProt P01116+P62937, G13C)	> 10 µM
C=CC(=O)N1CC(OCC(C(=O)N[C@H]2Cc3cc(cc(C(F)F)c3)-c3ccc4c(c3)c(c(-c3cccnc3[C@H](C)OC)n4CC(F)(F)F)CC(C)(C)COC(=O)[C@@H]3CCCN(N3)C2=O)C(C)C)C1 (mixture of isomers)	K-Ras G13C (Homo sapiens (Human), UniProt P01116+P62937, G13C)	> 10 µM
CO[C@@H](C)c1ncccc1-c1c2c3cc(ccc3n1CC(F)(F)F)-c1csc(n1)C[C@H](NC(=O)[C@H](C(C)C)N(C)C(=O)N1CCC3(CC1)CN(C(=O)/C=C/CF)C3)C(=O)N1CCC[C@H](N1)C(=O)OCC(C)(C)C2 (atropisomer, axis not shown)	K-Ras G13C (Homo sapiens (Human), UniProt P01116+P62937, G13C)	0.01 to 0.1 µM
C=CC(=O)N1CC(O[C@H](C(=O)N[C@H]2Cc3cc(O)cc(c3)-c3ccc4c(c3)c(c(-c3cccnc3COC)n4CC)CC(C)(C)COC(=O)[C@@H]3CCCN(N3)C2=O)C(C)C)C1	K-Ras G13C (Homo sapiens (Human), UniProt P01116+P62937, G13C)	1 to 10 µM
C=CC(=O)N1CC[C@H](C(=O)N(C)[C@H](C(=O)N[C@H]2Cc3cccc(c3)-c3ccc4c(c3)c(c(-c3cnccc3[C@H](C)OC)n4CC)CC(C)(C)COC(=O)[C@@H]3CCCN(N3)C2=O)C(C)C)C1 [Example A122]	K-Ras G13C (Homo sapiens (Human), UniProt P01116+P62937, G13C)	> 10 µM
CCn1c(-c2cccnc2[C@H](C)OC)c2c3cc(ccc31)-c1cccc(c1)C[C@H](NC(=O)[C@H](C(C)C)N1CC[C@@]3(CCN(C(=O)C#C[C@H]4COCCN4C4COC4)C3)C1=O)C(=O)N1CCC[C@H](N1)C(=O)OCC(C)(C)C2 (atropisomer, axis not shown)	K-Ras G13C (Homo sapiens (Human), UniProt P01116+P62937, G13C)	0.1 to 1 µM
C=CC(=O)N1CC[C@H](C(=O)N(C)[C@H](C(=O)N[C@H]2Cc3cc(O)cc(c3)-c3ccc4c(c3)c(c(-c3cncs3)n4CC)CC(C)(C)COC(=O)[C@@H]3CCCN(N3)C2=O)C(C)C)C1	K-Ras G13C (Homo sapiens (Human), UniProt P01116+P62937, G13C)	> 10 µM
C=CC(=O)N(C)CCN1CCN(C(=O)N(C)[C@H](C(=O)N[C@H]2Cc3cccc(c3)-c3ccc4c(c3)c(c(-c3cccnc3[C@H](C)OC)n4CC)CC(C)(C)COC(=O)[C@@H]3CCCN(N3)C2=O)C(C)C)C[C@@H]1C (atropisomer, axis not shown)	K-Ras G13C (Homo sapiens (Human), UniProt P01116+P62937, G13C)	0.01 to 0.1 µM

Please examine the following record next.
Exam item: Entry under review: C=CC(=O)N1CC(OC[C@H](C(=O)N[C@H]2Cc3nc(cs3)-c3ccc4c(c3)c(c(-c3cccnc3[C@H](C)OC)n4CC)CC(C)(C)COC(=O)[C@@H]3CCCN(N3)C2=O)C(C)C)C1 (atropisomer, axis not shown) . Reported IC50?
Marked response: 1 to 10 µM

* * *

Reported pIC50 by item:
molecular target: K-Ras G13C (Homo sapiens (Human), UniProt P01116+P62937, G13C); test: Ras-Raf (BRAF RBD) disruption / FRET / MOA assay, KRAS G13C; assay type: biochemical; conditions: KRAS G13C; Ras-Raf disruption/FRET/MOA assay; read-out: IC50* KRAS G13C FRET data
pIC50: −log10 of the molar value.

Below: 7 compounds and their reported pIC50.
compound	pIC50
C=CC(=O)N1CC[C@H](C(=O)N(C)[C@H](C(=O)N[C@H]2Cc3cccc(c3)-c3ccc4c(c3)c(c(-c3cc(CN(C)C)cnc3[C@H](C)OC)n4CC)CC(C)(C)COC(=O)[C@@H]3CCCN(N3)C2=O)C(C)C)C1 [Example A523]	< 5.00
CC#CC(=O)N1CC[C@H](C(=O)N(C)[C@H](C(=O)N[C@H]2Cc3cccc(c3)-c3ccc4c(c3)c(c(-c3cccnc3[C@H](C)OC)n4CC)CC(C)(C)COC(=O)[C@@H]3CCCN(N3)C2=O)C2CCCC2)C1 (atropisomer, axis not shown)	5.00 to 6.00
C=CC(=O)N1CC[C@H](C(=O)N(C)[C@H](C(=O)N[C@H]2Cc3cc(O)cc(c3)-c3ccc4c(c3)c(c(-c3ccncc3CN(C)C)n4CC)CC(C)(C)COC(=O)[C@@H]3CCCN(N3)C2=O)C(C)C)C1	6.00 to 7.00
C=CC(=O)N1CC[C@H](C(=O)N(C)[C@H](C(=O)N[C@H]2Cc3csc(n3)-c3ccc4c(c3)c(c(-c3cccnc3[C@H](C)OC)n4CC)CC(C)(C)COC(=O)[C@@H]3CCCN(N3)C2=O)C(C)C)C1 (atropisomer, axis not shown)	5.00 to 6.00
C=CC(=O)N1CCN(C(=O)N(C)[C@H](C(=O)N[C@H]2Cc3cc(O)cc(c3)-c3ccc4c(c3)c(c(-c3ccccc3CCOC)n4CC)CC(C)(C)COC(=O)[C@@H]3CCCN(N3)C2=O)C(C)C)C[C@H]1COC	6.00 to 7.00
C=CC(=O)N1CC[C@H]2[C@@H]1CN2C(=O)N(C)[C@H](C(=O)N[C@H]1Cc2nc(cs2)-c2ccc3c(c2)c(c(-c2cccnc2[C@H](C)OC)n3CC)CC(C)(C)COC(=O)[C@@H]2CCCN(N2)C1=O)C(C)C (atropisomer, axis not shown)	6.00 to 7.00
C=CC(=O)N1CCN(C(=O)N(C)[C@H](C(=O)N[C@H]2Cc3cc(O)cc(c3)-c3ccc4c(c3)c(c(-c3cccnc3[C@H](C)OC)n4CC)CC(C)(C)COC(=O)[C@@H]3CCCN(N3)C2=O)C(C)C)CC1 (atropisomer, axis not shown)	> 8.00

Please examine the following record next.
Exam item: Entry under review: C=CC(=O)N1CC[C@H](C(=O)N2CCCCC[C@H]2C(=O)N[C@H]2Cc3nc(cs3)-c3ccc4c(c3)c(c(-c3cccnc3[C@H](C)OC)n4CC)CC(C)(C)COC(=O)[C@@H]3CCCN(N3)C2=O)C1 (atropisomer, axis not shown) . Reported pIC50?
Marked response: 5.00 to 6.00
